Target: T-type calcium channel (Homo sapiens)
Assay: T-type channel blocking, FLIPR data (Table 6)
Format: cell-based
Conditions: CAv3.2, closed state, read-out: CAv3.2 IC50 Closed
Quantity Measured: IC50 (µM)
Only the number, expressed in µM, is required.

CC(C)([C@H]1C[C@H](Nc2ccnc(C(F)(F)F)n2)C1)S(=O)(=O)c1cccc(OC(F)(F)F)c1 [Compound 647] | 2.99
CC(C)([C@H]1C[C@@H](NS(=O)(=O)c2ccc(F)c(C(F)(F)F)c2)C1)S(=O)(=O)c1cccc(C(F)(F)F)c1 [Compound 628] | 3.22
CC(C)([C@H]1C[C@@H](NC(=O)c2ccnc(C(F)(F)F)n2)C1)S(=O)(=O)c1cccc(OC(F)(F)F)c1 [Compound 642] | 9.61
CC(C)([C@H]1C[C@H](NC(=O)c2ccnc(C(F)(F)F)n2)C1)S(=O)(=O)c1cccc(OC(F)(F)F)c1 [Compound 635] | 7.63
CC(C)([C@H]1C[C@@H](NC(=O)c2ccc(C(F)(F)F)cc2S(C)(=O)=O)C1)S(=O)(=O)c1cccc(OC(F)(F)F)c1 [Compound 643] | 8.38

Query: Would you mind telling me what IC50 value was observed for CC(C)(C1CC(CNC(=O)c2ccc(Cl)c(F)c2)C1)S(=O)(=O)c1cccc(C(F)(F)F)c1 (stereo not shown) [Compound 617] ?
Reply: 2.69

* * *

Target: T-type calcium channel (Homo sapiens)
Assay: T-type channel blocking, FLIPR data (Table 6)
Conditions: CAv3.1
Quantity Measured: IC50 (µM)
The answer is to be given in µM; state only the numeric part.

Examples with answers:
CC(C)(C1CC(CNC(=O)c2ccc(Cl)c(F)c2)C1)S(=O)(=O)c1cccc(C(F)(F)F)c1 (stereo not shown) [Compound 617] | 8.03
CC(C)(C[C@H]1C[C@@H](NC(=O)c2ccc(C(F)(F)F)cn2)C1)S(=O)(=O)c1cccc(C(F)(F)F)c1 [Compound 735] | 3.51
CC(C)([C@H]1C[C@H](CNc2ccc(F)c(Cl)c2)C1)S(=O)(=O)c1cccc(C(F)(F)F)c1 [Compound 750] | 3.37

Query: Notebook: pull reported IC50 for T-type calcium channel (Homo sapiens), entry CC(C)([C@H]1C[C@H](CNc2cc(C(F)(F)F)n[nH]2)C1)S(=O)(=O)c1cccc(C(F)(F)F)c1 [Compound 752]
Reply: 4.91

Query: Query IC50 on T-type calcium channel (Homo sapiens) for CC(C)([C@H]1C[C@@H](NC(=O)c2ccc(F)c(Cl)c2)C1)S(=O)(=O)c1cccc(OC(F)(F)F)c1 [Compound 641]
Reply: 0.77

* * *

Below, each of the compounds is paired with its reported pIC50 value.
Biological target: human α1H T-type channels (Homo sapiens, UniProt O95180)
Assay: T-type calcium channel block, whole cell patch clamp, α1H
Format: cell-based
Settings: HEK cells stably expressing human α1H; mainly non-inactivated protocol; values above 10,000 nM represented as 10000
The quantity pIC50 is defined as the negative base-10 logarithm of the molar concentration.

Completed entries (count: 2):
O=C(NC[C@H]1C[C@H](S(=O)(=O)c2cccc(C(F)(F)F)c2)C1)c1ccnc(C(F)(F)F)c1 [Compound 361] | 6.70
O=C(N[C@H]1CC[C@@H](CS(=O)(=O)c2cccc(C(F)(F)F)c2)CC1)c1ccc(C(F)(F)F)cn1 [Compound 143] | 5.17

Query: Record lookup: for human α1H T-type channels (Homo sapiens, UniProt O95180), what pIC50 belongs to COc1cc(C(=O)NCC2(C)CCC(S(=O)(=O)c3cccc(C(F)(F)F)c3)CC2)cc(Cl)n1 (centres unmarked) [Compound 210] ?
Reply: 5.38

Query: // fetch human α1H T-type channels (Homo sapiens, UniProt O95180) pIC50 for Cn1nc(C(F)(F)F)cc1NC(=O)[C@H]1C[C@H](S(=O)(=O)c2cccc(C(F)(F)F)c2)C1 [Compound 407]
Reply: 5.78

* * *

Molecular target: N-type calcium channel subunits (α1B, α2δ, and β3a) (Homo sapiens, UniProt Q00975)
Sequence (Q00975 whole entry): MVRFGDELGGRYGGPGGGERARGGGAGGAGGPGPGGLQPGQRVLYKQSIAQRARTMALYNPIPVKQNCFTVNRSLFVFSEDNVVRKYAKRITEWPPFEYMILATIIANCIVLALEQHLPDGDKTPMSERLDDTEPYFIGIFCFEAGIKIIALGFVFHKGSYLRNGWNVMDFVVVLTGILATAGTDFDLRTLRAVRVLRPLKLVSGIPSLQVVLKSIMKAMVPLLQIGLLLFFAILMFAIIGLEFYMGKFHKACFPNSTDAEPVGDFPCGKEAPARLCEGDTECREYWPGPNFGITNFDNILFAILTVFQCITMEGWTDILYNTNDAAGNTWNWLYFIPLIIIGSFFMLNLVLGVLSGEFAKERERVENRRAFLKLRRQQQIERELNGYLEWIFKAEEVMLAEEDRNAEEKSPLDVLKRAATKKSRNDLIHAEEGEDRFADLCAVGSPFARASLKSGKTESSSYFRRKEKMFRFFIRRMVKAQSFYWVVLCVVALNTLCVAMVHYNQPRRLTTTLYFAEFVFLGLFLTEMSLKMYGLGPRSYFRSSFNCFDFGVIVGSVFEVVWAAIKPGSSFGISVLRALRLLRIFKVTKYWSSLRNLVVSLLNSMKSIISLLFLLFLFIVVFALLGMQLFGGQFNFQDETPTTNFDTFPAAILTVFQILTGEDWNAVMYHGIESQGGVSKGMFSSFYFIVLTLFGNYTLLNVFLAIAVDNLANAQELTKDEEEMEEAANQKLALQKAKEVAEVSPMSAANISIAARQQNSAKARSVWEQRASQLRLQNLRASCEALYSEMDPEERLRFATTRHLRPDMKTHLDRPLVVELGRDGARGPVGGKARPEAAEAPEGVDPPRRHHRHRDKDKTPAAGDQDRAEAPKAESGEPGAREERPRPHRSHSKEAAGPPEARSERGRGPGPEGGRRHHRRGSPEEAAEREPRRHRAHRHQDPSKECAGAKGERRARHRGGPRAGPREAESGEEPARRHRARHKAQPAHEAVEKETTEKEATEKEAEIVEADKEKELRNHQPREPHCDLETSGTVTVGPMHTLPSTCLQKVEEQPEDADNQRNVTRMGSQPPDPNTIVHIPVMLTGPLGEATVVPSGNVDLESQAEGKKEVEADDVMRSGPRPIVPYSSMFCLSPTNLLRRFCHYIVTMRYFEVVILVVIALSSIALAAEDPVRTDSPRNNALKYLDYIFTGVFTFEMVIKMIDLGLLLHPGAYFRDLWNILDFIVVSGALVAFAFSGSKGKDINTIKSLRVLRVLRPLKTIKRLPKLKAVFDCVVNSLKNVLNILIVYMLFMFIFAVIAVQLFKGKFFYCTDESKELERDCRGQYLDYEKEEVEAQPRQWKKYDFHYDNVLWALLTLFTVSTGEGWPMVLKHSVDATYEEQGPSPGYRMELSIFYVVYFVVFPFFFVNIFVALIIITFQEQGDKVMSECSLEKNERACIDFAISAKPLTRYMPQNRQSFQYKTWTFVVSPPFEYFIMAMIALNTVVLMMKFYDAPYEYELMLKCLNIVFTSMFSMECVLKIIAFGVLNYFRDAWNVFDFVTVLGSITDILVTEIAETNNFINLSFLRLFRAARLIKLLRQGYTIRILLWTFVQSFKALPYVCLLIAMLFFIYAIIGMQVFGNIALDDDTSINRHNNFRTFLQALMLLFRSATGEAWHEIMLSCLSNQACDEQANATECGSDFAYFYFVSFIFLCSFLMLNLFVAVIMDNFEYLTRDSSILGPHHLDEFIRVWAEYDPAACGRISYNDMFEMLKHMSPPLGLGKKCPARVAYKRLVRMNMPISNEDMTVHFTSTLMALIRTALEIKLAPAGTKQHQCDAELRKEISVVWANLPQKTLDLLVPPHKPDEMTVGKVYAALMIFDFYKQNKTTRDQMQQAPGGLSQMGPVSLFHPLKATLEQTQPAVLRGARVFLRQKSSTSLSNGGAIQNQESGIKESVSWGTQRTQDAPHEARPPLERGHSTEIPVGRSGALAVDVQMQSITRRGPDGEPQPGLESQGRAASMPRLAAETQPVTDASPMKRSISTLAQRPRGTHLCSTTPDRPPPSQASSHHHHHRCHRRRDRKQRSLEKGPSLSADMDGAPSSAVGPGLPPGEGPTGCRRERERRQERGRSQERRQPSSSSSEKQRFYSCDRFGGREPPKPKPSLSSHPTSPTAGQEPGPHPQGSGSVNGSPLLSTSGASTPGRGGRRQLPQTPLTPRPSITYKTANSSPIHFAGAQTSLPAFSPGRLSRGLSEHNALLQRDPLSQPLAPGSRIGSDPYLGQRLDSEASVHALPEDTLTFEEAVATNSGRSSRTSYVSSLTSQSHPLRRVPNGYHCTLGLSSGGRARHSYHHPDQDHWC
Sequence (P54289 25-1103 partner): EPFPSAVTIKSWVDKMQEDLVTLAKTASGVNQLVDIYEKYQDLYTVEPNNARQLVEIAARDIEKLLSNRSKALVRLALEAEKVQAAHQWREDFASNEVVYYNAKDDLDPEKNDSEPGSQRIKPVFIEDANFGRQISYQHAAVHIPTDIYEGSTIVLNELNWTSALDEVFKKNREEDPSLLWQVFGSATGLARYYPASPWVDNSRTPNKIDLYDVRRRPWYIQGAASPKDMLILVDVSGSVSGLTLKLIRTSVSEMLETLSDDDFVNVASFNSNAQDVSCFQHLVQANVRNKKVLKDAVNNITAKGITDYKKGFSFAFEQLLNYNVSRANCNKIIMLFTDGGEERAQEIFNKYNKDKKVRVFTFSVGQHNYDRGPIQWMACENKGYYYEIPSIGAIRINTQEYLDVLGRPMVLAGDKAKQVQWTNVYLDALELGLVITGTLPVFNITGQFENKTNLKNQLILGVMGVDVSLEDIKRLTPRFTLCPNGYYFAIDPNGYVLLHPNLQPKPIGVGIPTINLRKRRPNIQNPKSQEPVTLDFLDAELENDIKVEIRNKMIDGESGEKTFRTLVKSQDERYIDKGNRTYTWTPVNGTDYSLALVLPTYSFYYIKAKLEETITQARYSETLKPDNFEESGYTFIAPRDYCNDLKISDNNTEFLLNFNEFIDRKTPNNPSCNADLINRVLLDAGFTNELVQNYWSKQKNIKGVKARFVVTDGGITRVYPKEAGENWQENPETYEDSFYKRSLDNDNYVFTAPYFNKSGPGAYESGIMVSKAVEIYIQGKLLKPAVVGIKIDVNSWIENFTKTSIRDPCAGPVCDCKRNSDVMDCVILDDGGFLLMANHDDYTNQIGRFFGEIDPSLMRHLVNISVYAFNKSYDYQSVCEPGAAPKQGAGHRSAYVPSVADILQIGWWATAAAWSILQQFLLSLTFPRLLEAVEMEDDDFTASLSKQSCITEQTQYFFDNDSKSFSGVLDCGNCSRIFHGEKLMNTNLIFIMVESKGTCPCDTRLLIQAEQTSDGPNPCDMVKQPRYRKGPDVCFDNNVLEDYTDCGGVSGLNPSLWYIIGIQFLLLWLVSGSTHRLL
Sequence (P54284 whole entry partner): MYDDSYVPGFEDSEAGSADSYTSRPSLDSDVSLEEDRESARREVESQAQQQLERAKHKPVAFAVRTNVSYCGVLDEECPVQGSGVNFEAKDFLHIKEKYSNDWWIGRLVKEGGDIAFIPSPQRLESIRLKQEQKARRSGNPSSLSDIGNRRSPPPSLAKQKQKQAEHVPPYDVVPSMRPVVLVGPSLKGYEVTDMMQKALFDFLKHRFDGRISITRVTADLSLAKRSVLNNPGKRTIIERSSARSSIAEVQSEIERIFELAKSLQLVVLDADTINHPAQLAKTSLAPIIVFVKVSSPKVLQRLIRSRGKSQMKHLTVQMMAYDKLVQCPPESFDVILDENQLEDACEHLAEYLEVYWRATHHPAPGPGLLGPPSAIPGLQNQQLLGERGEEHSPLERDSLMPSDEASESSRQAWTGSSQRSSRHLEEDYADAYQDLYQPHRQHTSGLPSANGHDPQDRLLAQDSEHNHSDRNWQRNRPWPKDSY
Experiment: Block of Cav2.2 channel, whole cell voltage clamp, manual and PatchXpress
Format: cell-based
Settings: Table 5; table follows Assay Example 3 (whole cell voltage clamp / PatchXpress); assay not given
Quantity Measured: IC50 (nM)
The answer is to be given in nM; state only the numeric part.

Cc1noc(C)c1S(=O)(=O)NC[C@H]1C[C@H](S(=O)(=O)c2cccc(C(F)(F)F)c2)C1 | 2670
O=C(N[C@H]1CC[C@@H](S(=O)(=O)c2cccc(C(F)(F)F)c2)CC1)c1ccnc(F)c1 | 1860
O=C(N[C@H]1CC[C@@](F)(S(=O)(=O)c2cccc(C(F)(F)F)c2)CC1)c1ccc(O)c(C(F)(F)F)c1 | 1010

Next item in the queue.
Query: Using the record for "O=C(Nc1cc(C(F)(F)F)ccn1)[C@H]1C[C@@H](S(=O)(=O)c2cccc(C(F)(F)F)c2)C1" , report its IC50.
Reply: 1240

* * *

Target: UniProtKB Q13936
Assay: FLIPR data, CAv1.2 channel blocking (Table 6)
Format: cell-based
Settings: ratio closed/inactivated IC50
Rule: CAv1.2 IC50 Ratio closed/inact. below 3 gives Criterion met. Equal to or above 3 gives Criterion not met.

Use these answered entries as a reference point.
CC(C)([C@H]1C[C@@H](NC(=O)c2ccc(F)c(Cl)c2)C1)S(=O)(=O)c1cc(F)cc(C(F)(F)F)c1 | Criterion not met
CC(C)(C1CC(CNC(=O)c2ccc(OCC(F)(F)F)nc2)C1)S(=O)(=O)c1cccc(C(F)(F)F)c1 (stereo not shown) | Criterion not met
CC(C)([C@H]1C[C@@H](NC(=O)c2ccc(Cl)c(F)c2)C1)S(=O)(=O)c1cccc(OC(F)(F)F)c1 | Criterion not met
CC(C)([C@H]1C[C@H](NC(=O)c2ccc(C(F)(F)F)cc2)C1)S(=O)(=O)c1cccc(C(F)(F)F)c1 | Criterion met
CC(C)(C1CC(CNC(=O)c2cc(C(F)(F)F)n[nH]2)C1)S(=O)(=O)c1cccc(C(F)(F)F)c1 (stereo not shown) [Compound 682] | Criterion not met
CC(C)S(=O)(=O)c1cc(C(F)(F)F)cnc1C(=O)N[C@H]1C[C@@H](C(C)(C)S(=O)(=O)c2cc(F)cc(C(F)(F)F)c2)C1 | Criterion met
CC(C)S(=O)(=O)c1cc(C(F)(F)F)cnc1C(=O)NCC1CC(C(C)(C)S(=O)(=O)c2cccc(C(F)(F)F)c2)C1 (stereo not shown) | Criterion met
CC(C)([C@H]1C[C@H](NS(=O)(=O)c2ccc(C(F)(F)F)nc2)C1)S(=O)(=O)c1cccc(C(F)(F)F)c1 | Criterion met

Query: Check if CAv1.2 IC50 Ratio closed/inact. falls below 3 for "CC(C)([C@H]1C[C@H](NC(=O)c2ccc(C(F)(F)F)cc2S(C)(=O)=O)C1)S(=O)(=O)c1cccc(OC(F)(F)F)c1" .
Reply: Criterion met

Query: # TODO verify CAv1.2 IC50 Ratio closed/inact. < 3 strictly for this compound: "O=S(=O)(c1cc(F)cc(C(F)(F)F)c1)[C@H]1C[C@@H](CNc2ccnc(C(F)(F)F)n2)C1"
Reply: Criterion met

Query: Here's an entry: "O=C(NC[C@H]1C[C@H](S(=O)(=O)c2cccc(OC(F)(F)F)c2)C1)c1cnc(C(F)(F)F)nc1" . Is its CAv1.2 IC50 Ratio closed/inact. below 3?
Reply: Criterion met

Query: Identify whether the compound "CC(C)([C@H]1C[C@H](NS(=O)(=O)c2ccc(F)c(C(F)(F)F)c2)C1)S(=O)(=O)c1cc(F)cc(C(F)(F)F)c1" records CAv1.2 IC50 Ratio closed/inact. below 3.
Reply: Criterion not met

* * *

Molecular target: Human Cav 2.2 channels (Homo sapiens, UniProt Q00975)
Assay: Fluorescent assay for CaV2.2 channels using potassium depolarization (VIPR/FLIPR)
Assay type: cell-based
Conditions: FLIPR data; closed state; read-out: CAv2.2 IC50 Closed
Values of IC50 strictly less than 6 µM map to met, and values of at least 6 µM map to not met.

Sample answers from the record:
CC(C)([C@H]1C[C@H](NC(=O)c2ccc(Cl)c(F)c2)C1)S(=O)(=O)c1cc(F)cc(C(F)(F)F)c1 [Compound 596] | met
CC(C)(C[C@H]1C[C@H](NC(=O)c2ccc(C(F)(F)F)cc2)C1)S(=O)(=O)c1cccc(C(F)(F)F)c1 [Compound 719] | met

Query: API: query returns whether the molecule falls strictly under 6 µM in IC50. Query: O=C(NC[C@H]1C[C@H](S(=O)(=O)c2cc(F)cc(C(F)(F)F)c2)C1)c1ccnc(C(F)(F)F)n1 [Compound 710]
Reply: met

Query: Check if IC50 falls below 6 µM for CC(C)(C[C@H]1C[C@@H](NC(=O)[C@@H]2CCCC[C@@H]2N)C1)S(=O)(=O)c1cccc(C(F)(F)F)c1 [Compound 740] .
Reply: met

Query: In the record for CC(C)([C@H]1C[C@@H](NC(=O)c2ccc(S(C)(=O)=O)cc2Cl)C1)S(=O)(=O)c1cccc(C(F)(F)F)c1 [Compound 577] , is IC50 less than 6 µM?
Reply: not met
